assay: Stability in pig kidney mitochondria assessed as conversion of prodrug into benzamidine per mg protein; type: ADME, Sus scrofa

Chem smiles | Stability / nmol/min/mg
CC(C)[C@H](N)C(=O)O/N=C(\N)c1ccccc1 | 8.8

###

assay: Stability in pig liver 9000g supernatant assessed as conversion of prodrug into pentamidine per mg protein; type: ADME, tissue-based, Sus scrofa

Chem smiles | Measure unit | Stability
CC(C)[C@H](N)C(=O)O/N=C(\N)c1ccc(OCCCCCOc2ccc(/C(N)=N/OC(=O)[C@@H](N)C(C)C)cc2)cc1 | nmol/min/mg | 0.4

###

experiment: Stability in pig kidney microsomes assessed as conversion of prodrug into benzamidine per mg protein; type: ADME, Sus scrofa, Microsome
Measure: Stability (nmol/min/mg)

Chem smiles | Measure unit | Measured result
CC(C)[C@H](N)C(=O)O/N=C(\N)c1ccccc1 | nmol/min/mg | 10.4
